test target: DRB1*1302 (Homo sapiens, UniProt P01903+P01911, A100E/A169T/K41T/L162R/M171V/P40S/Q125H/Q178H/Q39Y/Q99D/R42S/S66N/T262R/V115G/W38E/Y61H)
Sequence (P01903 26-254 limits assumed, other chains not shown): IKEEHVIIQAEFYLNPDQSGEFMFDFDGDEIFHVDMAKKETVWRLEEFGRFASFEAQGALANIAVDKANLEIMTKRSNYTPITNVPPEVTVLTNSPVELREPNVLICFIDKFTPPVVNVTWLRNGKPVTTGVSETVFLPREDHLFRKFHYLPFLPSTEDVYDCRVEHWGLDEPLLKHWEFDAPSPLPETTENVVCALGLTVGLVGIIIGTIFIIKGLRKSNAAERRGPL
test name: biochemical
Format: binding
condition description: read-out: IC50 nM to purified HLA DRB1*1302
IC50 by entry:
Please state the figure in nM; there is no need to write the unit.

Worked cases, answers included:
CC(C)C[C@H](NC(=O)[C@H](CCC(=O)O)NC(=O)[C@@H](NC(=O)[C@H](CO)NC(=O)[C@H](CCCCN)NC(=O)[C@@H](N)C(C)C)C(C)C)C(=O)N[C@@H](CC(=O)O)C(=O)N[C@@H](C)C(=O)N1CCC[C@H]1C(=O)N[C@@H](CC(N)=O)C(=O)N[C@@H](Cc1ccc(O)cc1)C(=O)N[C@@H](Cc1c[nH]cn1)C(=O)N[C@@H](Cc1ccc(O)cc1)C(=O)N[C@@H](CCC(=O)O)C(=O)N[C@@H](CCC(=O)O)C(=O)O 197
CC[C@H](C)[C@H](NC(=O)[C@H](CCSC)NC(=O)[C@H](CC(N)=O)NC(=O)[C@@H](N)CC(N)=O)C(=O)N[C@@H](CC(N)=O)C(=O)N[C@@H](CC(N)=O)C(=O)N[C@@H](CC(=O)O)C(=O)N[C@@H](CC(C)C)C(=O)NCC(=O)N1CCC[C@H]1C(=O)N[C@@H](C)C(=O)N[C@H](C(=O)N[C@@H](C)C(=O)N[C@@H](CCC(N)=O)C(=O)N[C@@H](CCSC)C(=O)O)[C@@H](C)O 477

// next entry
Please indicate IC50 recorded for "CC(C)C[C@H](NC(=O)[C@H](CCCCN)NC(=O)[C@H](CCCNC(=N)N)NC(=O)[C@H](CO)NC(=O)[C@H](CCC(=O)O)NC(=O)[C@H](C)NC(=O)[C@H](CO)NC(=O)[C@H](Cc1ccccc1)NC(=O)CNC(=O)[C@H](CCC(=O)O)NC(=O)[C@@H](N)CC(C)C)C(=O)N[C@@H](CC(C)C)C(=O)N[C@@H](CC(C)C)C(=O)N[C@H](C(=O)N[C@H](C(=O)O)C(C)C)C(C)C" 2270

###

IC50 by entry:
test target: DRB4*0101 (Homo sapiens, UniProt P01903+P13762, G164S)
Construct: made in house; host or cells: EBV-transformed homozygous human B cell lines, transfected fibroblasts or single-allele 721.221 transfectants
test name: biochemical
Assay type: binding
condition description: IC50 nM to purified HLA DRB4*0101
Please state the figure in nM; there is no need to write the unit.

Worked cases, answers included:
CC[C@H](C)[C@H](NC(=O)[C@H](CC(C)C)NC(=O)[C@H](Cc1ccccc1)NC(=O)CNC(=O)[C@H](CCCNC(=N)N)NC(=O)[C@H](CC(C)C)NC(=O)[C@@H](NC(=O)[C@H](C)NC(=O)[C@H](CO)NC(=O)[C@@H](N)CCC(=O)O)C(C)C)C(=O)N[C@@H](CC(C)C)C(=O)NCC(=O)N[C@@H](CCCCN)C(=O)N[C@@H](CCC(=O)O)C(=O)N[C@@H](CC(=O)O)C(=O)O 1280
CC(C)C[C@H](NC(=O)CNC(=O)[C@@H](NC(=O)[C@H](C)NC(=O)[C@H](CC(C)C)NC(=O)[C@@H](NC(=O)[C@H](CC(C)C)NC(=O)[C@H](CCCNC(=N)N)NC(=O)[C@H](CC(N)=O)NC(=O)[C@H](CO)NC(=O)[C@H](CCCCN)NC(=O)[C@@H](NC(=O)[C@H](Cc1ccc(O)cc1)NC(=O)[C@H](CCCCN)NC(=O)[C@@H]1CCCN1C(=O)[C@@H](N)CS)C(C)C)C(C)C)[C@@H](C)O)C(=O)O 287

// next entry
Please indicate IC50 recorded for "CC[C@H](C)[C@H](N)C(=O)N[C@@H](CC(C)C)C(=O)N[C@@H](CO)C(=O)N[C@H](C(=O)N[C@@H](Cc1ccc(O)cc1)C(=O)N[C@@H](CO)C(=O)N[C@H](C(=O)N[C@H](C(=O)N[C@@H](C)C(=O)N[C@@H](CO)C(=O)N[C@@H](CO)C(=O)N[C@@H](CC(C)C)C(=O)N[C@@H](C)C(=O)N[C@@H](CC(C)C)C(=O)N[C@@H](C)C(=O)N[C@H](C(=O)O)[C@@H](C)CC)C(C)C)[C@@H](C)O)[C@@H](C)CC" 824

###

test target: DRB1*0101 (Homo sapiens, UniProt P01903+P01911, A100R/D57E/F55L/F60I/F76Y/I96L/L162R/M171V/P40L/Q125E/R42F/V115G/Y59C)
Construct: made in house; host or cells: EBV-transformed homozygous human B cell lines, transfected fibroblasts or single-allele 721.221 transfectants
test name: biochemical
Format: binding
condition description: IC50 nM to purified HLA DRB1*0101
measured parameter: log10(IC50) (log10 of the value in nM)
Answers are given as log10 of IC50 in nM.

CSCC[C@H](NC(=O)[C@H](CCCNC(=N)N)NC(=O)[C@H](CCSC)NC(=O)[C@@H](N)C(C)C)C(=O)NCC(=O)N[C@@H](CC(=O)O)C(=O)N[C@@H](CC(C)C)C(=O)N[C@@H](Cc1c[nH]cn1)C(=O)N[C@@H](CO)C(=O)N[C@@H](CC(C)C)C(=O)N[C@@H](CCC(N)=O)C(=O)N[C@@H](CC(N)=O)C(=O)N[C@@H](CCCNC(=N)N)C(=O)N[C@@H](CC(N)=O)C(=O)NCC(=O)O 2.40
CC[C@H](C)[C@H](NC(=O)[C@H](CC(N)=O)NC(=O)[C@H](Cc1ccc(O)cc1)NC(=O)[C@H](CC(C)C)NC(=O)[C@H](CC(N)=O)NC(=O)[C@@H]1CCCN1C(=O)CNC(=O)CNC(=O)[C@H](CC(=O)O)NC(=O)[C@H](CO)NC(=O)[C@@H](NC(=O)[C@H](CC(C)C)NC(=O)[C@H](CC(C)C)NC(=O)CNC(=O)[C@H](C)N)C(C)C)C(=O)O 3.91

Please indicate log10(IC50) recorded for "CC(C)C[C@H](NC(=O)[C@H](CO)NC(=O)[C@H](CCCCN)NC(=O)[C@H](CCC(N)=O)NC(=O)[C@H](CC(=O)O)NC(=O)[C@H](CCCNC(=N)N)NC(=O)[C@H](CCCNC(=N)N)NC(=O)[C@H](CC(C)C)NC(=O)[C@H](CCCNC(=N)N)NC(=O)[C@H](CC(=O)O)NC(=O)[C@@H](N)CC(C)C)C(=O)N[C@@H](CCCNC(=N)N)C(=O)NCC(=O)N[C@@H](CCCNC(=N)N)C(=O)NCC(=O)O" 2.90

Please indicate log10(IC50) recorded for "CC[C@H](C)[C@H](NC(=O)CNC(=O)[C@H](CCCNC(=N)N)NC(=O)[C@H](CCC(N)=O)NC(=O)[C@H](CO)NC(=O)[C@@H](NC(=O)[C@H](CC(N)=O)NC(=O)[C@H](CC(C)C)NC(=O)[C@@H](NC(=O)[C@H](CO)NC(=O)[C@@H](N)CCCNC(=N)N)[C@@H](C)CC)[C@@H](C)O)C(=O)N[C@@H](CC(C)C)C(=O)N[C@@H](CCC(=O)O)C(=O)N[C@@H](CC(=O)O)C(=O)N[C@@H](CCC(=O)O)C(=O)O" 1.97

Please indicate log10(IC50) recorded for "CC[C@H](C)[C@H](NC(=O)CNC(=O)[C@H](CC(N)=O)NC(=O)[C@H](Cc1ccc(O)cc1)NC(=O)[C@H](CCCCN)NC(=O)[C@H](CC(C)C)NC(=O)[C@@H](NC(=O)[C@H](C)NC(=O)[C@@H](N)C(C)C)C(C)C)C(=O)N[C@H](C(=O)N[C@H](C(=O)N[C@@H](CC(=O)O)C(=O)N[C@H](C(=O)N[C@H](C(=O)N[C@@H](CCCCN)C(=O)N[C@@H](CO)C(=O)N[C@@H](Cc1c[nH]c2ccccc12)C(=O)O)[C@@H](C)CC)[C@@H](C)O)[C@@H](C)O)[C@@H](C)CC" 3.53

Please indicate log10(IC50) recorded for "CC[C@H](C)[C@H](NC(=O)[C@H](C)NC(=O)[C@H](CC(=O)O)NC(=O)[C@H](CC(N)=O)NC(=O)[C@@H]1CCCN1C(=O)[C@H](CCCCN)NC(=O)[C@H](CC(C)C)NC(=O)[C@@H](NC(=O)[C@@H](NC(=O)[C@H](Cc1c[nH]c2ccccc12)NC(=O)[C@H](Cc1ccccc1)NC(=O)[C@H](Cc1ccccc1)NC(=O)[C@H](CCC(=O)O)NC(=O)[C@H](CCSC)NC(=O)[C@@H](N)CCCNC(=N)N)[C@@H](C)O)[C@@H](C)CC)C(=O)O" 1.79

Please indicate log10(IC50) recorded for "CC[C@H](C)[C@H](NC(=O)[C@H](CCSC)NC(=O)[C@@H]1CCCN1C(=O)[C@H](CC(N)=O)NC(=O)[C@@H](N)Cc1ccccc1)C(=O)N[C@H](C(=O)N[C@@H](CCC(=O)O)C(=O)N[C@@H](CC(C)C)C(=O)N[C@@H](C)C(=O)N[C@@H](CCC(=O)O)C(=O)N[C@@H](CCCCN)C(=O)N[C@H](C(=O)N[C@@H](CCSC)C(=O)N[C@@H](CCCCN)C(=O)N[C@@H](CCC(=O)O)C(=O)O)[C@@H](C)O)C(C)C" 1.68

Please indicate log10(IC50) recorded for "CC[C@H](C)[C@H](NC(=O)[C@H](CCC(=O)O)NC(=O)[C@H](CCSC)NC(=O)[C@H](CCC(=O)O)NC(=O)[C@H](CCC(=O)O)NC(=O)[C@@H](N)CCCCN)C(=O)N[C@H](C(=O)N[C@H](C(=O)N[C@@H](Cc1c[nH]cn1)C(=O)N[C@@H](Cc1ccccc1)C(=O)N[C@@H](CCC(N)=O)C(=O)N[C@@H](CCCNC(=N)N)C(=O)N[C@@H](CCCCN)C(=O)N[C@@H](CCCNC(=N)N)C(=O)N[C@@H](CCCNC(=N)N)C(=O)O)[C@@H](C)O)[C@@H](C)O" 3.15

Please indicate log10(IC50) recorded for "CC[C@H](C)[C@H](NC(=O)[C@H](CCC(=O)O)NC(=O)[C@H](CC(=O)O)NC(=O)[C@H](CC(C)C)NC(=O)[C@H](CCC(=O)O)NC(=O)[C@@H](NC(=O)[C@H](Cc1c[nH]c2ccccc12)NC(=O)[C@@H](NC(=O)[C@@H](N)CO)[C@@H](C)CC)[C@@H](C)CC)C(=O)NCC(=O)N[C@@H](CCC(=O)O)C(=O)N[C@@H](CC(=O)O)C(=O)N[C@H](C(=O)N[C@@H](C)C(=O)N1CCC[C@H]1C(=O)O)C(C)C" 4.13
